- Test system: HEK-293T
- assay_text: Multiplex assay against HEK293T
- Assay type: toxicity, cell-based
- conditions_used: human, 24 h, 1 µM, compound concentration 1 uM, replicate 2
test_readout: Population Membrane Permeable-Phenotype (%)

{"columns": ["molecule", "measured_number"],
 "data": [
  ["COc1ccccc1CN[C@H]1C2CCN(CC2)[C@H]1C(c1ccccc1)c1ccccc1", 5],
  ["COc1cc2ncn(-c3cc(OCc4ccccc4C(F)(F)F)c(C(N)=O)s3)c2cc1OC [GW843682X]", 3],
  ["CC(C)CC(=O)Nc1[nH]nc2c1CN(C(=O)C1CCN(C)CC1)C2(C)C", 2],
  ["CCc1nn(CCCN2CCN(c3cccc(Cl)c3)CC2)c(=O)n1CCOc1ccccc1.Cl [NEFAZODONE HYDROCHLORIDE]", 8]
]}

---

- System: U2OS
- assay_text: Multiplex assay against U2OS
- Type: toxicity, cell-based
- conditions_used: human, 48 h, 10 µM, compound concentration 10 uM, replicate 2
Label 1 when Population Hoechst High Intensity Objects (%) is strictly below 20%; otherwise label 0.

{"columns": ["smiles_notation", "experimental_target", "label_class"],
 "data": [
  ["COc1cc(Nc2nccc(-c3cnn4nc(OC)ccc34)n2)cc(C(F)(F)F)c1", "U2OS", 0],
  ["CCCSc1nc(N[C@@H]2C[C@H]2c2ccc(F)c(F)c2)c2nnn([C@@H]3C[C@H](OCCO)[C@@H](O)[C@H]3O)c2n1", "U2OS", 1],
  ["COc1ccccc1CN[C@H]1C2CCN(CC2)[C@H]1C(c1ccccc1)c1ccccc1", "U2OS", 1],
  ["COC(=O)C1=C(C)NC(C)=C(C(=O)OCCCN2CCC(c3ccccc3)(c3ccccc3)CC2)[C@H]1c1cccc([N+](=O)[O-])c1", "U2OS", 1],
  ["Cc1c[nH]c2nccc(Oc3c(F)cc(Nc4cc(Cl)nc(N)n4)cc3F)c12", "U2OS", 1],
  ["COc1ccc(-c2ccc3ncc4c(c3c2)n(-c2ccc(N3CCNCC3)c(C(F)(F)F)c2)c(=O)n4C)cn1.O=C(O)/C=C\\C(=O)O", "U2OS", 0],
  ["CNC(=O)Nc1ccc(-c2nc(N3CC4CCC(C3)O4)c3cnn(C4CCC5(CC4)OCCO5)c3n2)cc1", "U2OS", 1]
]}

---

Reported Population Apoptotic (%) values for a set of compounds
- Test system: HEK-293T
- assay_text: Multiplex assay against HEK293T
- Format: toxicity, cell-based
- conditions_used: human, 48 h, 10 µM, compound concentration 10 uM, replicate 1

{"columns": ["compound", "measurement_unit", "Population Apoptotic (%)"],
 "data": [
  ["C#Cc1cccc(Nc2ncnc3cc(OCCOC)c(OCCOC)cc23)c1 [ERLOTINIB]", "%", 64],
  ["CC(C)NC(=O)N1CC[C@H](NC2=Nc3cc(F)ccc3N(CC(F)F)c3ccc(Cl)cc32)C1", "%", 70],
  ["CCc1nn(CCCN2CCN(c3cccc(Cl)c3)CC2)c(=O)n1CCOc1ccccc1.Cl [NEFAZODONE HYDROCHLORIDE]", "%", 90],
  ["CC(C)OC(=O)N1CCC(Oc2ncnc3c2cnn3-c2ccc(S(C)(=O)=O)cc2F)CC1", "%", 50],
  ["COc1ccccc1CN[C@H]1C2CCN(CC2)[C@H]1C(c1ccccc1)c1ccccc1 [CP-96345]", "%", 79],
  ["CCc1ccc(OCc2ccccc2C(=O)Nc2ccc3nc(C)cc(N)c3c2)cc1.Cl", "%", 49],
  ["Cc1ccc2c(c1)c1c(n2CCc2ccc(C)nc2)CCN(C)C1 [LATREPIRDINE]", "%", 86],
  ["Cc1ccc(C)c(Oc2ccncc2C(=O)N2CCN(C3CC3)c3ccccc32)c1", "%", 84]
]}

---

- Tested on: HEK-293T
- assay_text: Multiplex assay against HEK293T
- Type: toxicity, cell-based
- conditions_used: human, 48 h, 10 µM, compound concentration 10 uM, replicate 2
API: label(entry) gives t if the entry's Population Membrane Permeable-Phenotype (%) is strictly smaller than 4%; on equality or larger values it gives f.

{"columns": ["compound", "label_class"],
 "data": [
  ["COc1ccc(-c2ccc3ncc4c(c3c2)n(-c2ccc(N3CCNCC3)c(C(F)(F)F)c2)c(=O)n4C)cn1.O=C(O)/C=C\\C(=O)O", "f"],
  ["CCCSc1nc(N[C@@H]2C[C@H]2c2ccc(F)c(F)c2)c2nnn([C@@H]3C[C@H](OCCO)[C@@H](O)[C@H]3O)c2n1", "t"],
  ["CCc1nn(CCCN2CCN(c3cccc(Cl)c3)CC2)c(=O)n1CCOc1ccccc1.Cl [NEFAZODONE HYDROCHLORIDE]", "t"],
  ["CC(C)NC(=O)N1CC[C@H](NC2=Nc3cc(F)ccc3N(CC(F)F)c3ccc(Cl)cc32)C1", "f"],
  ["O=C(c1cc2c(cc1F)OC(c1ccc(F)cc1)(c1ccc(Cl)cc1Cl)O2)N1CCOCC1 (configuration not stated)", "f"],
  ["COc1cc2ncn(-c3cc(OCc4ccccc4C(F)(F)F)c(C(N)=O)s3)c2cc1OC [GW843682X]", "f"]
]}

---

Measured Population Apoptotic (%) by item
- Tested on: Fibroblast
- assay_text: Multiplex assay against human fibroblast
- Assay type: toxicity, cell-based
- conditions_used: 48 h, 10 µM, compound concentration 10 uM, replicate 1
test_readout: Population Apoptotic (%)

{"columns": ["molecule", "experimental_target", "measured_number"],
 "data": [
  ["Cc1ccc(C)c(Oc2ccncc2C(=O)N2CCN(C3CC3)c3ccccc32)c1", "Fibroblast", 66],
  ["O=C(c1cc2c(cc1F)OC(c1ccc(F)cc1)(c1ccc(Cl)cc1Cl)O2)N1CCOCC1 (centres undefined)", "Fibroblast", 80],
  ["CN1CCN(Cc2ccc(Nc3ncc(Cl)c(Nc4ccccc4S(=O)(=O)N(C)C)n3)cc2)CC1 [DUBERMATINIB]", "Fibroblast", 53],
  ["CC(C)OC(=O)N1CCC(Oc2ncnc3c2cnn3-c2ccc(S(C)(=O)=O)cc2F)CC1", "Fibroblast", 46]
]}

---

Collected Growth Rate values appear next to each entry.
- Test system: Fibroblast
- assay_text: Incucyte cell viability with human fibroblast; also: filed as whole numbers so only -1 and 0 and 1 occur
- Assay type: toxicity, cell-based
- conditions_used: 18 h, 10 µM, compound concentration 10 uM, replicate number 2, timepoint 18 hours
test_readout: Growth Rate

{"columns": ["molecule", "measured_number"],
 "data": [
  ["Cc1cc(-n2nc(Cc3cc(F)cc(C(F)(F)F)c3)nc2C)ccc1C(N)=O", 0],
  ["CNC(=O)Nc1ccc2c(c1)[C@@]1(CC2)OC(=O)N(CC(=O)N(Cc2ccc(F)cc2)[C@@H](C)C(F)(F)F)C1=O", 1],
  ["O=c1cc(N2CCOCC2)oc2c(-c3cccc4c3sc3ccccc34)cccc12", 1],
  ["CN1C[C@H](Nc2cnn(C)c(=O)c2Br)C[C@H](c2ccccc2)C1", 0],
  ["O=C(O)Cn1c(C(=O)Nc2nc(-c3ccccc3Cl)cs2)cc2ccccc21", 0],
  ["CCNC(=O)c1cc2c(N3CCOC[C@@H]3C)ccnc2n1C", 0],
  ["CN(C)C(=O)Cn1cc(-c2nc([C@@](C)(c3ccc(-c4cnc(N)nc4)cc3)C3CC3)no2)cn1", 1],
  ["CCOC(=O)CCNc1cc(N2CCc3ccccc3CC2)nc(-c2cccnc2)n1", 0],
  ["CC1(C)CCC(C)(C)c2cc(C(=O)Nc3ccc(C(=O)O)cc3)ccc21", 0],
  ["O=C(Cc1ccccc1)Nc1nc2ccc(Cl)cc2c2nc(-c3ccco3)nn12", 1],
  ["COC(=O)/C=C/c1cccc(N(Cc2ccc(-c3ccc(N(C)C)cc3)cc2)C(=O)C2CCCCC2)c1", 0],
  ["CC(C)(C)NC[C@H](O)COc1nsnc1N1CCOCC1", 0],
  ["COC(=O)C1=C(C)NC(C)=C(C(=O)OCCCN2CCC(c3ccccc3)(c3ccccc3)CC2)[C@H]1c1cccc([N+](=O)[O-])c1", 1],
  ["Cc1ccccc1C(=O)Nc1ccc(C(=O)N2CCCC(O)c3cc(Cl)ccc32)c(C)c1 (stereo not drawn)", 0],
  ["C[C@]1(O)C[C@@H](c2nc(-c3ccc4ccc(-c5ccccc5)nc4c3)c3c(N)nccn32)C1", 1],
  ["CN1CCc2c(c3ccccc3n2Cc2ccc(C(=O)NO)cc2)C1", 0],
  ["Cl.Clc1cccc(COc2cncc(N3CCNCC3)n2)c1", 0],
  ["COCCOc1nc(-c2ccc(Cl)nc2)nc2c1CN(C(=O)c1ncn3ccccc13)CC2", 0]
]}

---

Recorded Growth Rate, one value per entry.
- Tested on: U2OS
- assay_text: Incucyte cell viability with U2OS; also: filed as whole numbers so only -1 and 0 and 1 occur
- Format: toxicity, cell-based
- conditions_used: human, 12 h, 10 µM, compound concentration 10 uM, replicate number 1, timepoint 12 hours

{"columns": ["compound", "Growth Rate"],
 "data": [
  ["Cl.Clc1cccc(COc2cncc(N3CCNCC3)n2)c1", 0],
  ["CC1(C)CCC(C)(C)c2cc(C(=O)Nc3ccc(C(=O)O)cc3)ccc21", 1],
  ["CC(C)(O)c1ccccc1CC[C@@H](SCC1(CC(=O)[O-])CC1)c1cccc(/C=C/c2ccc3ccc(Cl)cc3n2)c1.[Na+] [MONTELUKAST SODIUM]", 1],
  ["Cc1c[nH]c2nccc(Oc3c(F)cc(Nc4cc(Cl)nc(N)n4)cc3F)c12", 0],
  ["Nc1ncnc2c1ccn2[C@@H]1O[C@H]([C@H](O)c2ccccc2)[C@@H](O)[C@H]1O", 0],
  ["CC(C)Oc1ccc(-c2c[nH]cc2CN(C)CCN)cc1", 1],
  ["O=C([O-])c1cc2ccccc2c(Cc2c(O)c(C(=O)[O-])cc3ccccc23)c1O.[Na+].[Na+]", 0],
  ["CC(C)N(CCCNC(=O)Nc1ccc(C(C)(C)C)cc1)C[C@H]1O[C@@H](n2cc(Br)c3c(N)ncnc32)[C@H](O)[C@@H]1O", 1],
  ["CCCOc1ccc([C@H]2[C@H](C(=O)O)[C@@H](c3ccc4c(c3)OCO4)CN2CC(=O)Nc2c(CC)cccc2CC)cc1", 0]
]}
